- protocol notes: phase 1 single ascending dose study, pharmacokinetics
- Type: in vivo, human
- study conditions: both sexes, human, plasma, po, 200 mg, 200 mg single oral dose, fasted, n=6; mean (SD)
measurement type: AUC(0-inf)

stdin: Give the measured AUC(0-inf) of CC1CCCN1C(=O)c1nc(C(=O)NCC(C)(C)O)sc1-c1ccc(C(O)(C(F)(F)F)C(F)(F)F)c(Cl)c1Cl (stereo not shown) .
stdout: 201 µg·h/mL

----------
- target under test: 5HT7 (Homo sapiens)
- Sequence (P34969 whole entry): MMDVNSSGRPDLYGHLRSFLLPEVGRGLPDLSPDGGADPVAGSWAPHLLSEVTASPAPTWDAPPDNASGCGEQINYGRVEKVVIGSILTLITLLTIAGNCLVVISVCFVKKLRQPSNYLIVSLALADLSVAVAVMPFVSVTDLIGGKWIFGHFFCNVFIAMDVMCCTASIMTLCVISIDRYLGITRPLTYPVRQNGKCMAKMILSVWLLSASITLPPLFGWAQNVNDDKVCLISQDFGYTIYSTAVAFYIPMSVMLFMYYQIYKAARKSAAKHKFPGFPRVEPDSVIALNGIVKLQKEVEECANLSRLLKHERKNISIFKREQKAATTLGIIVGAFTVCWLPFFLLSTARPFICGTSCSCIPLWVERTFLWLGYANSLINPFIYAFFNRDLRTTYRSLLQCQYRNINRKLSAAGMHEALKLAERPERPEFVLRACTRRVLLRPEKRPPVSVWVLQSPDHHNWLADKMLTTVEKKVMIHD
- protocol notes: GPCR panel, cAMP or calcium FLIPR assays
- Assay type: cell-based
- study conditions: agonist
measurement type: EC50

stdin: Record CC1CCCN1C(=O)c1nc(C(=O)NCC(C)(C)O)sc1-c1ccc(C(O)(C(F)(F)F)C(F)(F)F)c(Cl)c1Cl (stereo not shown) : what is its EC50 with 5HT7 (Homo sapiens)?
stdout: > 12.5 µM
